Test system: transactivating tegument protein VP16 (Human herpesvirus 1), Gal4-VP16 luciferase reporter
Test: VP16 transactivation inhibitors, counter-screen for SRC3 inhibitor project, cell-based, luminescence, high throughput (AID 588794)
Conditions: mammalian cells, VP16-driven luciferase reporter luminescence; at 3.6 µM; hits give high values
Below: a set of entries, each annotated with reported inhibition.

- compound: "CC(C)Cn1c(N)c(C(=O)CSc2ccc3c(c2)OCCO3)c(=O)n(C)c1=O"
  unitSymbol: "%"
  inhibition: 56.9
- compound: "CC(=O)N1CCCc2cc(S(=O)(=O)N3CCCC(C(=O)N4CCN(c5cccc(Cl)c5)CC4)C3)ccc21 (stereo unspecified)"
  unitSymbol: "%"
  inhibition: 31.5
- compound: "CCn1c(C)cc(C(=O)CN2C(=O)c3ccccc3S2(=O)=O)c1C"
  unitSymbol: "%"
  inhibition: 31.5
- compound: "CN(Cc1c(C(=O)N/N=C/c2ccccc2O)nnn1-c1nonc1N)C1CCCCC1"
  unitSymbol: "%"
  inhibition: 46.5
- compound: "c1cnc2c(c1)ccc1cccnc12"
  unitSymbol: "%"
  inhibition: 31.6
- compound: "COc1cccc(/C=N/NC(=O)c2c(-c3ccccc3)noc2C)c1O"
  unitSymbol: "%"
  inhibition: 37.1
- compound: "Cc1onc(-c2ccccc2)c1C(=O)NC(=S)NNC(=O)c1ccc(O)cc1O"
  unitSymbol: "%"
  inhibition: 75.7
- compound: "COc1ccc(C(=O)Nc2nc(-c3ccccn3)cs2)cc1S(=O)(=O)N1CCOCC1"
  unitSymbol: "%"
  inhibition: -11.1
- compound: "COc1ccc(CCNC(=O)C(C)n2nc(C)c3c(C)n(-c4ccc(C)cc4)nc3c2=O)c(OC)c1 (stereo unspecified)"
  unitSymbol: "%"
  inhibition: 30.4
- compound: "CCOC(=O)CN(C(=O)COc1nc(C)cc(C)c1C#N)c1ccc(Cl)cc1"
  unitSymbol: "%"
  inhibition: 1.1
- compound: "CCOC(=O)Cc1[nH]nc2c1C(c1cccc(OC)c1OC)C(C#N)=C(N)O2 (stereo unspecified)"
  unitSymbol: "%"
  inhibition: 0.25
- compound: "NC(=O)c1ccc(N2CCN(S(=O)(=O)c3cccs3)CC2)c([N+](=O)[O-])c1"
  unitSymbol: "%"
  inhibition: 34.7
- compound: "CCOC(=O)C1=Nc2ccccc2C1=[N+]=[N-]"
  unitSymbol: "%"
  inhibition: 46
- compound: "Cc1cc(C(=O)COC(=O)c2ccccc2O)c(C)n1Cc1cccs1"
  unitSymbol: "%"
  inhibition: 84.9
- compound: "CC1Cc2cc(-c3csc(NC(=O)Cc4cccs4)n3)ccc2N1S(C)(=O)=O (stereo unspecified)"
  unitSymbol: "%"
  inhibition: 42.5
- compound: "Cc1ccc(/C=C/C(O)=C2/C(=O)N(C)C3(C)CC2c2ccccc2O3)cc1 (stereo unspecified)"
  unitSymbol: "%"
  inhibition: 30.3
- compound: "O=C(Nc1nc(-c2ccccc2)cs1)C1CCCN(S(=O)(=O)c2ccccc2)C1 (stereo unspecified)"
  unitSymbol: "%"
  inhibition: 16.4
- compound: "Cn1nc(C(F)(F)F)c(-c2ccc(Br)cc2)c1NC(=O)c1ccco1"
  unitSymbol: "%"
  inhibition: -1.15
- compound: "CN(C)c1ccc(/C=C/c2ccc3ccccc3n2)cc1"
  unitSymbol: "%"
  inhibition: 29
- compound: "COc1ccc(C)cc1NS(=O)(=O)c1ccc(NC(=O)CN(c2cc([N+](=O)[O-])ccc2C)S(C)(=O)=O)cc1"
  unitSymbol: "%"
  inhibition: -20
- compound: "C=CCn1c(SCC(=O)NC2CCCC2)nnc1-c1ccccn1"
  unitSymbol: "%"
  inhibition: -2.97

* * *

Target: Nuclear receptor coactivator 2 (Homo sapiens)
Test: SRC2 coactivator transcriptional activity inhibitors, confirmation, cell-based, luminescence, HEK293, triplicate (AID 652008);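 also: 0% = DMSO-treated cells and 100% = Gossypol at 36 µM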
Settings: HEK293 GAL4-SRC2 luciferase reporter, at 8.9 µM
Active and inactive are the calls of the source.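 The calls were made as follows: active = mean inhibition above 46.5%, the solvent-only control mean plus 3 SD; inactive = the rest.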
Labels: 1 = active, 0 = inactive

- compound: "COn1c2c(c3c4nonc4ccc31)CCCC2"
  cat: 0
- compound: "COC(=O)c1ccc(NC(=O)c2nc(S(=O)(=O)Cc3cccc(C)c3)ncc2Cl)cc1"
  cat: 1
- compound: "Cc1ccc2c(c1)sc(=NC(=O)c1cccs1)n2C"
  cat: 0
- compound: "Cn1c(=N)n(CC(=O)c2ccc(F)cc2)c2ccccc21"
  cat: 0
- compound: "Cc1ccc(Nc2nc(-c3c(C)nc4ccccn34)cs2)cc1"
  cat: 0
- compound: "O=C(N/N=C\\c1cc(Br)c(Br)o1)C1COc2ccccc2O1 (configuration not stated)"
  cat: 0
- compound: "CN(C)Cc1ccc(-c2nc3cccc4c3n2CCNC4=O)cc1"
  cat: 0
- compound: "Cn1nc(C(C)(C)C)cc1C(=O)N1CCCCC1c1cc(C(=O)Nc2ccccc2Cl)no1 (configuration not stated)"
  cat: 0
- compound: "CC(=O)c1sc(NC(=O)C2(F)C(F)(F)C(F)(F)C(F)(F)C(F)(F)C2(F)F)nc1C"
  cat: 0
- compound: "CC(=O)N(Cc1ccc(F)cc1)C1=C(NCCc2ccccc2)C(=O)c2ccccc2C1=O"
  cat: 0
- compound: "C[C@@H](C(=O)Nc1ccc2c(c1)OCCO2)n1c(=O)[nH]c2ccccc2c1=O"
  cat: 1
- compound: "CC1(C)Cc2c(ccc3ccccc23)C(=O)N1"
  cat: 0
- compound: "Cc1[nH]ccc2c1[nH]c1cc(=O)ccc12"
  cat: 0
- compound: "Cc1ccc(NC(=O)C2CCC(C(C)(C)C)CC2)cc1S(=O)(=O)N1CCOCC1 (configuration not stated)"
  cat: 0
- compound: "Cc1csc(NC(=O)CSc2ccc([N+](=O)[O-])cn2)n1"
  cat: 0
- compound: "Cc1ccc(OCC(=O)c2cc(C)n(Cc3ccco3)c2C)c([N+](=O)[O-])n1"
  cat: 0
- compound: "Cc1ccc(CC2C(=O)N(c3cc(C)ccc3C)C(=O)C2C)cc1 (configuration not stated)"
  cat: 0
- compound: "CC(C)(C)c1ccc(C(=O)Nc2sc3c(c2C(=O)O)CCC3)cc1"
  cat: 0
- compound: "N#CCCN(C(=O)COC(=O)C1CCN(S(=O)(=O)c2ccccc2C(F)(F)F)CC1)c1ccccc1"
  cat: 0
- compound: "Cc1ccc(S(=O)(=O)N2[C@@H](c3ccc4c(c3)OCO4)C(C(=O)O)=C[C@H]2C(C)(C)C)cc1"
  cat: 0
- compound: "CCn1nc(C)cc1-c1nnc(Sc2ncc([N+](=O)[O-])s2)n1C"
  cat: 1
- compound: "CS(=O)(=O)N1CCC(C(=O)NCc2ccccc2)CC1"
  cat: 0

* * *

Target: Nuclear receptor coactivator 2 (Homo sapiens) (UniProt Q15596)
Sequence (Q15596 whole entry, looked up): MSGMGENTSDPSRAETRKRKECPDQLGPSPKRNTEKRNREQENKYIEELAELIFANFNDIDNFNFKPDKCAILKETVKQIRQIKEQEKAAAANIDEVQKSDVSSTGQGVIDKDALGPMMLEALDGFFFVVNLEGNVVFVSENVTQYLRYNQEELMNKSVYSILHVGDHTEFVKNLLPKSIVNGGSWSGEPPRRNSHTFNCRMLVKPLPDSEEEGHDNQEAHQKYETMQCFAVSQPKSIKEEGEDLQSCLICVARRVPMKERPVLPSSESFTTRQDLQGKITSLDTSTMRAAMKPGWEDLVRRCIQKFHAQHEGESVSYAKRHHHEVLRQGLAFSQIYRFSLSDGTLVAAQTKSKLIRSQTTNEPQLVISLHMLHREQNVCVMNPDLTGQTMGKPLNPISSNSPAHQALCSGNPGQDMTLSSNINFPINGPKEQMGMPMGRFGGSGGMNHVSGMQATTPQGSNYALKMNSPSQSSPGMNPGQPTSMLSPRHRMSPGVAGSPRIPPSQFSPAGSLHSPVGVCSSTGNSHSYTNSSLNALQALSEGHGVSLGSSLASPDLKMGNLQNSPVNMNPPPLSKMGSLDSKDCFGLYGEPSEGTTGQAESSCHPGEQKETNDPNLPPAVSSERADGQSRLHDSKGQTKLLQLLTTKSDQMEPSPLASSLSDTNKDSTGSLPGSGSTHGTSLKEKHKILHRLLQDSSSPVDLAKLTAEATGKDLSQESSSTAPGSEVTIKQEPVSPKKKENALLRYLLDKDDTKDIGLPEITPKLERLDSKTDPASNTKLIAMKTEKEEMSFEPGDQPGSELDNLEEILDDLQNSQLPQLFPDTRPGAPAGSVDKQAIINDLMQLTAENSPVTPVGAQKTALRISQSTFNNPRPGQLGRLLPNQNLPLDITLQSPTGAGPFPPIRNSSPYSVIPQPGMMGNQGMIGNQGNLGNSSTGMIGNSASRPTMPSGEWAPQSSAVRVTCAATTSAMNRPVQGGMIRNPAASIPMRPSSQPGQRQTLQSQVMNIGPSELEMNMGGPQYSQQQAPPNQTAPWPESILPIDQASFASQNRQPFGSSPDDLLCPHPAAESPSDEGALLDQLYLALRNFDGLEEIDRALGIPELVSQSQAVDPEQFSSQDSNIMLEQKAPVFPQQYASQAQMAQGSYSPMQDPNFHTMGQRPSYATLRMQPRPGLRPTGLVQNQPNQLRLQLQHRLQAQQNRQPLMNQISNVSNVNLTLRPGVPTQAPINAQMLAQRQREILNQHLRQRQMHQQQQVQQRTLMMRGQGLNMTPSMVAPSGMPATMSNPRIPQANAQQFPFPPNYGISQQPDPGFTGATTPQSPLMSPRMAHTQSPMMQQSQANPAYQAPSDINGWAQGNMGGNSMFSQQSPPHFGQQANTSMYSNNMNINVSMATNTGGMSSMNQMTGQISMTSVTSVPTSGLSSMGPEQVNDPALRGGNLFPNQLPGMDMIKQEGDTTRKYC
Assay: SRC2 coactivator transcriptional activity inhibitors, confirmation, cell-based, luminescence, HEK293, triplicate (AID 652008);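 also: 0% = DMSO-treated cells and 100% = Gossypol at 36 µM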
Conditions: HEK293 GAL4-SRC2 luciferase reporter, at 8.9 µM, hits give high values
Below: a set of entries, each annotated with reported inhibition.
propertyLabel: inhibition (%)

- molecule: "O=C(O)CCCc1ccc2c(c1)CCc1ccccc1-2"
  unitSymbol: "%"
  reportedMeasurement: 77.1
- molecule: "COc1ccc(C(=O)C(CN2CCCC2)c2ccccc2)cc1 (stereo unspecified)"
  unitSymbol: "%"
  reportedMeasurement: 40.2
- molecule: "CC(C)(C)NCC(=Cc1ccccc1)C(=O)c1ccccc1"
  unitSymbol: "%"
  reportedMeasurement: 71.1
- molecule: "Cc1[nH]nc(-c2cccnc2)c1N=NN(C)C"
  unitSymbol: "%"
  reportedMeasurement: 41.1
- molecule: "Nc1ccc(Oc2ccccc2-c2ccccc2)cc1"
  unitSymbol: "%"
  reportedMeasurement: 87.8
- molecule: "Cc1ccc(/C=C2\\SC(=S)N(CCCC(=O)Nc3cc(C)on3)C2=O)cc1"
  unitSymbol: "%"
  reportedMeasurement: 68.8

* * *

Target: Nuclear receptor subfamily 5 group A member 2 (Homo sapiens)
Assay: LRH-1 (NR5A2) inverse agonists, retest, confirmation, cell-based, luminescence (AID 651613);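 also: HEK293T cells co-transfected with LRH-1 and StAR promoter luciferase reporter; 0% = vehicle wells and 100% = parental cells lacking receptor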
Conditions: cell-based LRH-1 luciferase reporter, inverse agonism; at 3.6 µM; hits give high values
Recorded inhibition determines the label; the label ranges are range 1 (below 40%), range 2 (40% to below 60%), range 3 (60% or more)

- molecule: "O=C(CC1CS(=O)(=O)CC1CC(=O)Nc1ccc2c(c1)OCCO2)Nc1ccc2c(c1)OCCO2 (stereo unspecified)"
  cat: "range 1"
- molecule: "Clc1ccccc1-c1nnc2sc(-c3ccncc3)nn12"
  cat: "range 2"
- molecule: "CC(=NNC(=S)N1CCN(C2CCCCCC2)CC1)c1ccccn1"
  cat: "range 3"
- molecule: "CC(CCc1ccccc1)NC(=O)COc1ccc(S(=O)(=O)N2CCOCC2)cc1[N+](=O)[O-] (stereo unspecified)"
  cat: "range 1"
- molecule: "COc1ccc(-c2n(CC(=O)OC3CC(C)CCC3C(C)C)c3ccccc3[n+]2C)cc1 (stereo unspecified)"
  cat: "range 3"
- molecule: "Cn1cc(Cl)c(C(=O)OCC(=O)Nc2ccc(S(N)(=O)=O)cc2)n1"
  cat: "range 2"
- molecule: "c1ccc(-n2nnnc2-c2cccc3ccccc23)cc1"
  cat: "range 2"
- molecule: "Cc1ccc(NC(=O)CSc2ccc3c(c2)OCCO3)c(O)c1"
  cat: "range 2"
- molecule: "O=C1C(Nc2ccccc2)=C(N2CCCCC2)C(=O)c2ccccc21"
  cat: "range 1"
- molecule: "Cc1cc(C)c2sc(NNC(=O)c3ccc(S(=O)(=O)N4CCc5ccccc5C4)cc3)nc2c1"
  cat: "range 3"
- molecule: "O=C(OC12CC3CC(CC(C3)C1)C2)c1ccc(NCc2cc(O)ccc2O)cc1"
  cat: "range 3"
- molecule: "COC(=O)c1ccc(COC(=O)c2[nH]c(C)c(C(C)=O)c2C)o1"
  cat: "range 2"
- molecule: "Cn1c(CCNC(=O)c2cccs2)nnc1SCC(=O)N1CCN(c2ccccc2)CC1"
  cat: "range 1"
- molecule: "Cc1nnc(SCC(=O)Nc2ccc(N3CCN(S(C)(=O)=O)CC3)cc2)o1"
  cat: "range 2"
- molecule: "CCOC(=O)c1ccc(N2CCN(C(=O)c3ccccc3)CC2)c(NC(=O)c2ccco2)c1"
  cat: "range 1"
- molecule: "CC1CC(C)C[N+](=C2C=C(N3CCCC3)CC(C)(C)C2)C1 (stereo unspecified)"
  cat: "range 3"
- molecule: "COCCn1c(C)cc(C2=NNC(=Nc3ccccc3F)SC2)c1C"
  cat: "range 1"
